molecular target: Estrogen receptor (Mus musculus) (UniProt O08537+P19785); experiment: Uterotrophic activity in mice at 10 ug dose; assay type: functional, tissue-based; details: Uterus
Sequence (O08537 whole entry, looked up): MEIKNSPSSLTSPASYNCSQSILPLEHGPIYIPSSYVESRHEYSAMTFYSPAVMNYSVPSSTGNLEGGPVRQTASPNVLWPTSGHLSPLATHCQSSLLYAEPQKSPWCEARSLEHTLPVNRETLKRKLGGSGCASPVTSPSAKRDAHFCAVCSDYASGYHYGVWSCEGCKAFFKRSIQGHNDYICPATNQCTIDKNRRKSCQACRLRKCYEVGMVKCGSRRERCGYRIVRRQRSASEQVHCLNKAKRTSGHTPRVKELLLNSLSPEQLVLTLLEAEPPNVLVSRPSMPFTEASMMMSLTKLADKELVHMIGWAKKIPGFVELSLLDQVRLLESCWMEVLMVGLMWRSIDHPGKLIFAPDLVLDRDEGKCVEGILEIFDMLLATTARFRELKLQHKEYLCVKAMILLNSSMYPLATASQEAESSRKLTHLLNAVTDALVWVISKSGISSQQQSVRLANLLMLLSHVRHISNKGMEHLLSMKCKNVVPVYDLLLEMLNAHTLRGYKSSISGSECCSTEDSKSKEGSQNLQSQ
Sequence (P19785 whole entry, looked up): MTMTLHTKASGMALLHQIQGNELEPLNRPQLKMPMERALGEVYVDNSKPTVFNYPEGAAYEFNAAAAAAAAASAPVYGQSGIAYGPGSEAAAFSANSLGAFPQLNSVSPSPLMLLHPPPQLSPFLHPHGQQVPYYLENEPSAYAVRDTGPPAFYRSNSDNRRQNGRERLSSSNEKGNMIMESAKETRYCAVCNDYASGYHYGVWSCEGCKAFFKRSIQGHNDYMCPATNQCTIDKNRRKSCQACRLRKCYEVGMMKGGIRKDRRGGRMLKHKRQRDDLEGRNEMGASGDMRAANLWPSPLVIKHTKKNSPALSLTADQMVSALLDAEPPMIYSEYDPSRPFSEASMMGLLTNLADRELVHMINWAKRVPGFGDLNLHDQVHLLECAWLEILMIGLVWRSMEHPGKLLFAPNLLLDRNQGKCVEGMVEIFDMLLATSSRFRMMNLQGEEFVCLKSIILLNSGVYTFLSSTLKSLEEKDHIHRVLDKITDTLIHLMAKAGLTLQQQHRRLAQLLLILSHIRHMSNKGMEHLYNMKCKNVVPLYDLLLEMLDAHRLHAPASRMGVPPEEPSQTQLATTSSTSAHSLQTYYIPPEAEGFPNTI
Record form. Attribute: Effect. Fill in for each entry.
Answers are plain numbers.

Value sought for every listed compound: Effect.
1. CC(=O)Oc1cccc(C2(C)OC2(C)c2cccc(OC(C)=O)c2)c1 (centres undefined)
2. CCCCC1(c2cccc(OC(C)=O)c2)OC1(CCCC)c1cccc(OC(C)=O)c1 (centres undefined)

[17, 19.8]

Value sought for every listed compound: Effect.
1. CC/C(=C(/CC)c1cccc(OC(C)=O)c1)c1cccc(OC(C)=O)c1
2. CCC1(c2cccc(OC(C)=O)c2)OC1(CC)c1cccc(OC(C)=O)c1 (centres undefined)

24.3
30.3

* * *

target: Estrogen receptor (Mus musculus) (UniProt O08537+P19785); assay: Uterotrophic activity in mice at 500 ug dose; type: functional, tissue-based; conditions: Uterus
Record form. Attribute: Effect. Fill in for each entry.
Give bare numbers.

Answered examples (3):
| compound | Effect |
| --- | --- |
| CC/C(=C(/CC)c1cccc(OC(C)=O)c1)c1cccc(OC(C)=O)c1 | 42 |
| CC(=O)Oc1cccc(C2(C)OC2(C)c2cccc(OC(C)=O)c2)c1 (centres undefined) | 20.6 |
| CCCC1(c2cccc(OC(C)=O)c2)OC1(CCC)c1cccc(OC(C)=O)c1 (centres undefined) | 33.3 |

Now examine the next entry.
Find the recorded Effect belonging to CCC1(c2cccc(OC(C)=O)c2)OC1(CC)c1cccc(OC(C)=O)c1 (centres undefined) and report it.
38.6

* * *

target: Estrogen receptor (Mus musculus) (UniProt O08537+P19785); assay: Percent inhibition of estrone-stimulated uterine growth in immature mouse at 5 ug dose; type: functional
Label rule met for high-side inhibition (at or above 50%) and rule not met for low-side inhibition (below it).

| molecule | group.label |
| --- | --- |
| CC(=O)Oc1cccc(C2(C)OC2(C)c2cccc(OC(C)=O)c2)c1 (stereo unspecified) | rule not met |
| CC/C(=C(/CC)c1cccc(O)c1)c1cccc(O)c1 | rule not met |
| CCCC1(c2cccc(OC(C)=O)c2)OC1(CCC)c1cccc(OC(C)=O)c1 (stereo unspecified) | rule not met |
| CCC1(c2cccc(O)c2)OC1(CC)c1cccc(O)c1 (stereo unspecified) | rule met |

For this molecule, is measured inhibition 50% or higher? CCC1(c2cccc(OC(C)=O)c2)OC1(CC)c1cccc(OC(C)=O)c1 (stereo unspecified)
rule not met

For this molecule, is measured inhibition 50% or higher? CCCCC1(c2cccc(OC(C)=O)c2)OC1(CCCC)c1cccc(OC(C)=O)c1 (stereo unspecified)
rule not met

* * *

target: Estrogen receptor (Mus musculus) (UniProt O08537+P19785); test: Uterotrophic activity in mice at 100 ug dose; format: functional, tissue-based; conditions: Uterus
Param label: returns y when Effect < 30, returns n otherwise, including exact equality.

| compound | group.label |
| --- | --- |
| CCCCC1(c2cccc(OC(C)=O)c2)OC1(CCCC)c1cccc(OC(C)=O)c1 (stereo not given) | n |
| CCC1(c2cccc(OC(C)=O)c2)OC1(CC)c1cccc(OC(C)=O)c1 (stereo not given) | n |
| CC(=O)Oc1cccc(C2(C)OC2(C)c2cccc(OC(C)=O)c2)c1 (stereo not given) | y |
| CC/C(=C(/CC)c1cccc(OC(C)=O)c1)c1cccc(OC(C)=O)c1 | n |

Would you kindly verify if Effect of CCCC1(c2cccc(OC(C)=O)c2)OC1(CCC)c1cccc(OC(C)=O)c1 (stereo not given) is strictly less than 30?
n
